test system: HeLa Kyoto; assay: melting temperature (median over replicates), in situ; higher = more thermally stable; details: cell cycle stage: mitosis
measurement.type: melting temperature (°C)
Give the value, in units of °C, as a plain number.

Please review the following examples before continuing.
sequence.entry: MDLLFGRRKTPEELLRQNQRALNRAMRELDRERQKLETQEKKIIADIKKMAKQGQMDAVRIMAKDLVRTRRYVRKFVLMRANIQAVSLKIQTLKSNNSMAQAMKGVTKAMGTMNRQLKLPQIQKIMMEFERQAEIMDMKEEMMNDAIDDAMGDEEDEEESDAVVSQVLDELGLSLTDELSNLPSTGGSLSVAAGGKKAEAAASALADADADLEERLKNLRRD [CHMP2A]
melting temperature (°C): 54.4
--
sequence.entry: MGNTLTCCVSPNASPKLGRRAGSAELYCASDIYEAVSGDAVAVAPAVVEPAELDFGEGEGHHLQHISDREMPEDLALESNPSDHPRASTIFLSKSQTDVREKRKSNHLNHVSPGQLTKKYSSCSTIFLDDSTVSQPNLRTTVKCVTLAIYYHIKNRDANRSLDIFDERSHPLTREKVPEEYFKHDPEHKFIYRFVRTLFSAAQLTAECAIVTLVYLERLLTYAEIDICPTNWKRIVLGAILLASKVWDDQAVWNVDYCQILKDITVEDMNEMERHFLELLQFNINVPASVYAKYYFDLRSLADDNNLNFLFAPLSKERAQNLEAISRLCEDKDLCRAAMRRSFSADNFIGIQRSKAILS [CCNYL1]
melting temperature (°C): 49.2

Request: What melting temperature value was documented for this sequence, MAAVDIRDNLLGISWVDSSWIPILNSGSVLDYFSERSNPFYDRTCNNEVVKMQRLTLEHLNQMVGIEYILLHAQEPILFIIRKQQRQSPAQVIPLADYYIIAGVIYQAPDLGSVINSRVLTAVHGIQSAFDEAMSYCRYHPSKGYWWHFKDHEEQDKVRPKAKRKEEPSSIFQRQRVDALLLDLRQKFPPKFVQLKPGEKPVPVDQTKKEAEPIPETVKPEEKETTKNVQQTVSAKGPPEKRMRLQ [MED6] ?
Result: 50

----------
test system: HeLa Kyoto; assay: thermal stability score vs G1/S (z-score of summed log2 fold changes over temperatures); higher = more thermally stable than in G1/S; conditions: cell cycle stage: early G1 (4.5 h after nocodazole release)
We begin with a simple list: items and their reported thermal stability score.
Please give only the number in your answer, with no unit.

Please review the following examples before continuing.
substance: MAYAYLFKYIIIGDTGVGKSCLLLQFTDKRFQPVHDLTIGVEFGARMITIDGKQIKLQIWDTAGQESFRSITRSYYRGAAGALLVYDITRRDTFNHLTTWLEDARQHSNSNMVIMLIGNKSDLESRREVKKEEGEAFAREHGLIFMETSAKTASNVEEAFINTAKEIYEKIQEGVFDINNEANGIKIGPQHAATNATHAGNQGGQQAGGGCC [RAB2A]
thermal stability score: -2.08

substance: HNRNPU
thermal stability score: 7.74

substance: MANEAYPCPCDIGHRLEYGGLGREVQVEHIKAYVTKSPVDAGKAVIVIQDIFGWQLPNTRYIADMISGNGYTTIVPDFFVGQEPWDPSGDWSIFPEWLKTRNAQKIDREISAILKYLKQQCHAQKIGIVGFCWGGTAVHHLMMKYSEFRAGVSVYGIVKDSEDIYNLKNPTLFIFAENDVVIPLKDVSLLTQKLKEHCKVEYQIKTFSGQTHGFVHRKREDCSPADKPYIDEARRNLIEWLNKYM [CMBL]
thermal stability score: -0.107

Could you now consider this next substance?
Request: # returns recorded thermal stability score (system: HeLa Kyoto) for MALNKNHSEGGGVIVNNTESILMSYDHVELTFNDMKNVPEAFKGTKKGTVYLTPYRVIFLSKGKDAMQSFMMPFYLMKDCEIKQPVFGANYIKGTVKAEAGGGWEGSASYKLTFTAGGAIEFGQRMLQVASQASRGEVPSGAYGYSYMPSGAYVYPPPVANGMYPCPPGYPYPPPPPEFYPGPPMMDGAMGYVQPPPPPYPGPMEPPVSGPDVPSTPAAEAKAAEAAASAYYNPGNPHNVYMPTSQPPPPPYYPPEDKKTQ [WBP2]
Result: 0.182

----------
tested on: HeLa Kyoto; test: solubility in G1/S (NP-40 vs SDS abundance) (log2 ratio); higher = more soluble; settings: cell cycle stage: G1/S
Tag: Fulfilled if measured solubility in G1/S (log2) is not below -0.2, Not fulfilled if it is.

sequence.entry: MTQQPLRGVTSLRFNQDQSCFCCAMETGVRIYNVEPLMEKGHLDHEQVGSMGLVEMLHRSNLLALVGGGSSPKFSEISVLIWDDAREGKDSKEKLVLEFTFTKPVLSVRMRHDKIVIVLKNRIYVYSFPDNPRKLFEFDTRDNPKGLCDLCPSLEKQLLVFPGHKCGSLQLVDLASTKPGTSSAPFTINAHQSDIACVSLNQPGTVVASASQKGTLIRLFDTQSKEKLVELRRGTDPATLYCINFSHDSSFLCASSDKGTVHIFALKDTRLNRRSALARVGKVGPMIGQYVDSQWSLASFTVPAESACICAFGRNTSKNVNSVIAICVDGTFHKYVFTPDGNCNREAFDVYLDICDDDDF [WDR45]
system: HeLa Kyoto
discrete.label: Not fulfilled
--
sequence.entry: MAEKFDHLEEHLEKFVENIRQLGIIVSDFQPSSQAGLNQKLNFIVTGLQDIDKCRQQLHDITVPLEVFEYIDQGRNPQLYTKECLERALAKNEQVKGKIDTMKKFKSLLIQELSKVFPEDMAKYRSIRGEDHPPS [MED10]
system: HeLa Kyoto
discrete.label: Fulfilled

Request: # check: solubility in G1/S (log2) of MGCFFSKRRKADKESRPENEEERPKQYSWDQREKVDPKDYMFSGLKDETVGRLPGTVAGQQFLIQDCENCNIYIFDHSATVTIDDCTNCIIFLGPVKGSVFFRNCRDCKCTLACQQFRVRDCRKLEVFLCCATQPIIESSSNIKFGCFQWYYPELAFQFKDAGLSIFNNTWSNIHDFTPVSGELNWSLLPEDAVVQDYVPIPTTEELKAVRVSTEANRSIVPISRGQRQKSSDESCLVVLFAGDYTIANARKLIDEMVGKGFFLVQTKEVSMKAEDAQRVFREKAPDFLPLLNKGPVIALEFNGDGAVEVCQLIVNEIFNGTKMFVSESKETASGDVDSFYNFADIQMGI [RP2] is greater than or equal to -0.2
Result: Not fulfilled

Request: Also MSLALRSELVVDKTKRKKRRELSEEQKQEIKDAFELFDTDKDEAIDYHELKVAMRALGFDVKKADVLKILKDYDREATGKITFEDFNEVVTDWILERDPHEEILKAFKLFDDDDSGKISLRNLRRVARELGENMSDEELRAMIEEFDKDGDGEINQEEFIAIMTGDI [CETN3] , if possible.
Result: Fulfilled

----------
tested on: HeLa Kyoto; experiment: thermal stability score vs G1/S (z-score of summed log2 fold changes over temperatures); higher = more thermally stable than in G1/S; details: cell cycle stage: early G1 (4.5 h after nocodazole release)
We begin with a simple list: items and their reported thermal stability score.
Please give only the number in your answer, with no unit.

sequence.entry: MGDPERPEAAGLDQDERSSSDTNESEIKSNEEPLLRKSSRRFVIFPIQYPDIWKMYKQAQASFWTAEEVDLSKDLPHWNKLKADEKYFISHILAFFAASDGIVNENLVERFSQEVQVPEARCFYGFQILIENVHSEMYSLLIDTYIRDPKKREFLFNAIETMPYVKKKADWALRWIADRKSTFGERVVAFAAVEGVFFSGSFAAIFWLKKRGLMPGLTFSNELISRDEGLHCDFACLMFQYLVNKPSEERVREIIVDAVKIEQEFLTEALPVGLIGMNCILMKQYIEFVADRLLVELGFSKVFQAENPFDFMENISLEGKTNFFEKRVSEYQRFAVMAETTDNVFTLDADF [RRM2B]
system: HeLa Kyoto
thermal stability score: -1.2

Request: What thermal stability score value was documented for this sequence, MLGFITRPPHRFLSLLCPGLRIPQLSVLCAQPRPRAMAISSSSCELPLVAVCQVTSTPDKQQNFKTCAELVREAARLGACLAFLPEAFDFIARDPAETLHLSEPLGGKLLEEYTQLARECGLWLSLGGFHERGQDWEQTQKIYNCHVLLNSKGAVVATYRKTHLCDVEIPGQGPMCESNSTMPGPSLESPVSTPAGKIGLAVCYDMRFPELSLALAQAGAEILTYPSAFGSITGPAHWEVLLRARAIETQCYVVAAAQCGRHHEKRASYGHSMVVDPWGTVVARCSEGPGLCLARIDLNYLRQLRRHLPVFQHRRPDLYGNLGHPLS [NIT1] ?
Result: -1.82

----------
test system: HeLa Kyoto; assay: solubility change mitosis vs G1/S (difference of NP-40 vs SDS log2 ratios) (log2 ratio difference); higher = more soluble in mitosis
We begin with a simple list: items and their reported solubility change mitosis (log2).
Please give only the number in your answer, with no unit.

sequence.entry: MAAIRMGKLTTMPAGLIYASVSVHAAKQEESKKQLVKPEQLPIYTAPPLQSKYVEEQPGHLQMGFASIRTATGCYIGWCKGVYVFVKNGIMDTVQFGKDAYVYLKNPPRDFLPKMGVITVSGLAGLVSARKGSKFKKITYPLGLATLGATVCYPVQSVIIAKVTAKKVYATSQQIFGAVKSLWTKSSKEESLPKPKEKTKLGSSSEIEVPAKTTHVLKHSVPLPTELSSEAKTKSESTSGATQFMPDPKLMDHGQSHPEDIDMYSTRS [APOOL]
measurement.type: solubility change mitosis (log2)
obs.value: -0.104

sequence.entry: MASVLSYESLVHAVAGAVGSVTAMTVFFPLDTARLRLQVDEKRKSKTTHMVLLEIIKEEGLLAPYRGWFPVISSLCCSNFVYFYTFNSLKALWVKGQHSTTGKDLVVGFVAGVVNVLLTTPLWVVNTRLKLQGAKFRNEDIVPTNYKGIIDAFHQIIRDEGISALWNGTFPSLLLVFNPAIQFMFYEGLKRQLLKKRMKLSSLDVFIIGAVAKAIATTVTYPLQTVQSILRFGRHRLNPENRTLGSLRNILYLLHQRVRRFGIMGLYKGLEAKLLQTVLTAALMFLVYEKLTAATFTVMGLKRAHQH [SLC25A17]
measurement.type: solubility change mitosis (log2)
obs.value: -0.0966

Could you now consider this next sequence?
Request: What solubility change mitosis (log2) value was documented for this sequence, MLGFITRPPHRFLSLLCPGLRIPQLSVLCAQPRPRAMAISSSSCELPLVAVCQVTSTPDKQQNFKTCAELVREAARLGACLAFLPEAFDFIARDPAETLHLSEPLGGKLLEEYTQLARECGLWLSLGGFHERGQDWEQTQKIYNCHVLLNSKGAVVATYRKTHLCDVEIPGQGPMCESNSTMPGPSLESPVSTPAGKIGLAVCYDMRFPELSLALAQAGAEILTYPSAFGSITGPAHWEVLLRARAIETQCYVVAAAQCGRHHEKRASYGHSMVVDPWGTVVARCSEGPGLCLARIDLNYLRQLRRHLPVFQHRRPDLYGNLGHPLS [NIT1] ?
Result: -0.133

Where do the numbers come from? From the supplement of paper PMC5998384.
